Below: a set of entries, each annotated with reported pEC50.
biological target: T1, rhFGFR2IIIb-Fc (recombinant human FGFR2IIIb-Fc) (human, UniProt P21802-3 22-378, limits assumed); assay: ELISA, coated rhFGFR2IIIb-Fc, anti-Fab HRP
T1 construct: Coated on the ELISA plate at 2 ug/mL; not shown: Fc part
T1 sequence (P21802 other isoform, or with tags, fused parts or gaps limits assumed): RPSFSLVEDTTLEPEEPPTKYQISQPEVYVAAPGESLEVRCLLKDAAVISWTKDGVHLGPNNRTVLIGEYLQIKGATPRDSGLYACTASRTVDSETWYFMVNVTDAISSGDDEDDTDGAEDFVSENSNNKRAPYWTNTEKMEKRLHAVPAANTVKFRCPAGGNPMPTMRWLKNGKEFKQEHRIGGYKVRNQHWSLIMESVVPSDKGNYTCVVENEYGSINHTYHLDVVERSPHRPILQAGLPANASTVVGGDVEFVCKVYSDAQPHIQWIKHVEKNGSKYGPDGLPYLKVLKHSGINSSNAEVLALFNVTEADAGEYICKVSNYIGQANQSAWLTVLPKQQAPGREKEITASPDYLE
Scale explanation: pEC50 corresponds to minus log10 of a concentration expressed in moles per litre.

Field: example entries. Status: answers known.
Incoming: Return value of pEC50 for input FWB1915 (antibody, V domains shown) VH: QVQLVQSGAEVKKPGSSVKVSCKASGYIFTSYNVHWVRQAPGQGLEWIGSIYPDNGDSSYDEDYKGRATITADKSTSTAYMELSSLRSEDTAVYYCARGDFAYWGQGTLVTVSS VL: DIQMTQSPSSLSASVGDRVTITCKASNGVSNDIAWYQQKPGKAPKLLIYSASYRYSGVPSRFSGSGSGTDFTFTISSLQPEDIATYYCQQHSTTPYTFGQGTKLEIK , no commentary.
Outgoing: 9.06

Incoming: Give recorded pEC50. FWB1914 (antibody, V domains shown) VH: QVQLVQSGAEVKKPGSSVKVSCKASGYIFTSYNVHWVRQAPGQGLEWIGSIYPDNGDSSYNNNYKGRATITADKSTSTAYMELSSLRSEDTAVYYCARGDFAYWGQGTLVTVSS VL: DIQMTQSPSSLSASVGDRVTITCKASNGVSNDIAWYQQKPGKAPKLLIYSASYRYSGVPSRFSGSGSGTDFTFTISSLQPEDIATYYCQQHSTTPYTFGQGTKLEIKR
Outgoing: 9.00

API: the following record is the query input.
Incoming: Please give the documented pEC50 of FWB1913 (antibody, V domains shown) VH: QVQLVQSGAEVKKPGSSVKVSCKASGYIFTSYNVHWVRQAPGQGLEWIGSIYPDNGDSSYNQNYKGRATITADKSTSTAYMELSSLRSEDTAVYYCARGDYAYWGQGTLVTVSS VL: DIQMTQSPSSLSASVGDRVTITCKASNGVSNDIAWYQQKPGKAPKLLIYSASYRYSGVPSRFSGSGSGTDFTFTISSLQPEDIATYYCQQHSTTPYSFGQGTKLEIK
Outgoing: 9.04
